Target: PCSK9/LDLR (Homo sapiens, UniProt Q8NBP7)
Sequence (Q8NBP7 31-152 limits assumed): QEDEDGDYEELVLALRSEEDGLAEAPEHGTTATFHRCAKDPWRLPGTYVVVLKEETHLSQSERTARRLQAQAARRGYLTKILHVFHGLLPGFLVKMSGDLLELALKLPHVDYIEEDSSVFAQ
Sequence (Q8NBP7 153-692 limits assumed): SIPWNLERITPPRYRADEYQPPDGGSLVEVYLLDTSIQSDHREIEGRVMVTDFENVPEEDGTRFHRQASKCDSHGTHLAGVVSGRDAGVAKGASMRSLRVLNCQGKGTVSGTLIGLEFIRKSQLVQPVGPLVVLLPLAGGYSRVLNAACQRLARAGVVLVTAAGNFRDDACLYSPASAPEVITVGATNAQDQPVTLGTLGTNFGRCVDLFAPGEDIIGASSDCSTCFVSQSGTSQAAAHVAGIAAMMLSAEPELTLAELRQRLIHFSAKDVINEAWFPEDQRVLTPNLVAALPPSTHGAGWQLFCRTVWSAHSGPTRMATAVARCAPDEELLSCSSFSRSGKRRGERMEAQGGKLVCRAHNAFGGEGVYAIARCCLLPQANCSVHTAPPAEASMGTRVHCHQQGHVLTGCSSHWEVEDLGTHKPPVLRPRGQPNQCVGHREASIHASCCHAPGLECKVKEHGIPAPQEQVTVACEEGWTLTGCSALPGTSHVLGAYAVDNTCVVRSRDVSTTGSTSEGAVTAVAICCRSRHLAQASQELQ
Sequence (P01130 22-860 partner limits assumed): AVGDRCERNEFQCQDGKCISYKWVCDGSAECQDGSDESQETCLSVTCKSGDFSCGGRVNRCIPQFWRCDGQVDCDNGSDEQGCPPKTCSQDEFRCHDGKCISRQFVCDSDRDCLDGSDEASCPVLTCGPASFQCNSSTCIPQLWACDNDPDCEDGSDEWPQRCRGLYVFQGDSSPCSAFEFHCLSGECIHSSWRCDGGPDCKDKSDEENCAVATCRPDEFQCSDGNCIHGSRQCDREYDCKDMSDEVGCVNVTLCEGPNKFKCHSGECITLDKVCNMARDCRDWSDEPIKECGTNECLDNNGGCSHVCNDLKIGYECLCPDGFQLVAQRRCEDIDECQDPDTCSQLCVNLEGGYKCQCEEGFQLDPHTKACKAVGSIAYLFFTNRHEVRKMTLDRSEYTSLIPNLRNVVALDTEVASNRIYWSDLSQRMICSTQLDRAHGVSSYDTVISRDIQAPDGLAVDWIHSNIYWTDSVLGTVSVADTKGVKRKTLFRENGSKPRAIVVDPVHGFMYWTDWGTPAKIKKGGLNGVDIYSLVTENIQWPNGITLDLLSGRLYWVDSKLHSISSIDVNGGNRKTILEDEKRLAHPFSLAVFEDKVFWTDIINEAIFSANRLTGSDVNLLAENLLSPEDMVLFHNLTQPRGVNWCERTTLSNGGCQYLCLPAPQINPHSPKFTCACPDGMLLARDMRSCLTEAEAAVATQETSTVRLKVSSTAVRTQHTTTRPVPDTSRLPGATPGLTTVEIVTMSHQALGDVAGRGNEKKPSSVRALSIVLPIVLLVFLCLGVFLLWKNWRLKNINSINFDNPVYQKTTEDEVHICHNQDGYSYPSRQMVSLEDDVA
Experiment: Inhibition of avi-tagged-biotinylated human PCSK9 interaction with His-tagged human LDLR EGFa domain by LANCE Ulight Streptavidin based TR-FRET assay
Numbered stars: 1 amine (or outer) side, 2 acyl side, 3 side chain; on linkers, the order of the positions; unused ones are H or OH. Bridge positions count the residues as written; N and C are the ends. Square brackets hold non-standard residues; d marks the D form. Peptide text beside a SMILES is read from it. Trp(5-F) = N[C@@H](Cc1c[nH]c2ccc(F)cc12)C(=O)O; mXylylene = c1cc(C[*:1])cc(C[*:2])c1; NMeY = CN[C@@H](Cc1ccc(O)cc1)C(=O)O; Mpa = O=C(O)CCS
valueKind: Ki (nM)

{"molecule": "CN1C(=O)[C@H](Cc2cnc[nH]2)NC(=O)[C@H](CC(=O)O)NC(=O)[C@H](Cc2c[nH]c3ccc(F)cc23)NC(=O)[C@H](Cc2c[nH]c3ccc(F)cc23)NC(=O)CNC(=O)[C@H](CCCCN)NC(=O)CCSCc2cccc(c2)CSC[C@@H](C(N)=O)NC(=O)[C@@H]2CCCN2C(=O)[C@@H]1Cc1ccc(O)cc1 ([Mpa]KG[Trp(5-F)][Trp(5-F)]DH[NMeY]PC-NH2; linker 1-10 via mXylylene)", "reportedResult": 112}
{"molecule": "NCCCC[C@@H]1NC(=O)CCSCc2cccc(c2)CSC[C@H](C(N)=O)NC(=O)[C@@H]2CCCN2C(=O)[C@H](Cc2ccc(O)cc2)NC(=O)[C@H](Cc2cnc[nH]2)NC(=O)[C@H](CC(=O)O)NC(=O)[C@H](Cc2c[nH]c3ccc(F)cc23)NC(=O)[C@H](Cc2c[nH]c3ccc(F)cc23)NC(=O)CNC1=O", "reportedResult": 2010}

###

Target: PCSK9/LDLR (Homo sapiens)
Assay: Inhibition of avi-tagged-biotinylated human PCSK9 interaction with His-tagged human LDLR EGFa domain by LANCE Ulight Streptavidin based TR-FRET assay
Numbered stars: 1 amine (or outer) side, 2 acyl side, 3 side chain; on linkers, the order of the positions; unused ones are H or OH. Bridge positions count the residues as written; N and C are the ends. Square brackets hold non-standard residues; d marks the D form. Peptide text beside a SMILES is read from it. Trp(5-F) = N[C@@H](Cc1c[nH]c2ccc(F)cc12)C(=O)O; Bip = N[C@@H](Cc1ccc(-c2ccccc2)cc1)C(=O)O; mXylylene = c1cc(C[*:1])cc(C[*:2])c1; NMeK = CN[C@@H](CCCCN)C(=O)O; αMeP = C[C@@]1(C(=O)O)CCCN1; Pip = O=C(O)[C@@H]1CCCCN1; Aze = O=C(O)[C@@H]1CCN1; Mpa = O=C(O)CCS

{"compound": "C[C@@H]1NC(=O)CCSCc2cccc(c2)CSCCNC(=O)[C@]2(C)CCCN2C(=O)[C@H](Cc2ccc(O)cc2)NC(=O)[C@H](Cc2cnc[nH]2)NC(=O)[C@H](CC(=O)O)NC(=O)[C@H](Cc2c[nH]c3ccc(F)cc23)NC(=O)[C@H](Cc2c[nH]c3ccc(F)cc23)NC(=O)[C@@H](CCCCN)NC1=O", "studySystem": "PCSK9/LDLR (Homo sapiens)", "valueQualifier": "=", "Ki [nM]": 48.1}
{"compound": "NCCCC[C@@H]1NC(=O)CCSCc2cccc(c2)CSC[C@@H](C(N)=O)NC(=O)[C@@H]2CCCCN2C(=O)[C@H](Cc2ccc(O)cc2)NC(=O)[C@H](Cc2cnc[nH]2)NC(=O)[C@H](CC(=O)O)NC(=O)[C@H](Cc2c[nH]c3ccc(F)cc23)NC(=O)[C@H](Cc2c[nH]c3ccc(F)cc23)NC(=O)CNC1=O ([Mpa]KG[Trp(5-F)][Trp(5-F)]DHY[Pip]C-NH2; linker 1-10 via mXylylene)", "studySystem": "PCSK9/LDLR (Homo sapiens)", "valueQualifier": "=", "Ki [nM]": 969}
{"compound": "NCCCC[C@@H]1NC(=O)CCSCc2cccc(c2)CSC[C@@H](C(N)=O)NC(=O)[C@@H]2CCCN2C(=O)[C@H](Cc2ccc(O)cc2)NC(=O)[C@H](Cc2c[nH]cn2)NC(=O)[C@H](CC(=O)O)NC(=O)[C@H](Cc2c[nH]c3ccc(F)cc23)NC(=O)[C@H](Cc2ccc(-c3ccccc3)cc2)NC(=O)CNC1=O ([Mpa]KG[Bip][Trp(5-F)]DHYPC-NH2; linker 1-10 via mXylylene)", "studySystem": "PCSK9/LDLR (Homo sapiens)", "valueQualifier": "=", "Ki [nM]": 29300}
{"compound": "CC(C)[C@H]1NC(=O)[C@H](CCCCN)NC(=O)CCSCc2cccc(c2)CSCCNC(=O)[C@]2(C)CCCN2C(=O)[C@H](Cc2ccc(O)cc2)NC(=O)[C@H](Cc2cnc[nH]2)NC(=O)[C@H](CC(=O)O)NC(=O)[C@H](Cc2c[nH]c3ccc(F)cc23)NC(=O)[C@H](Cc2c[nH]c3ccc(F)cc23)NC1=O", "studySystem": "PCSK9/LDLR (Homo sapiens)", "valueQualifier": "=", "Ki [nM]": 17.6}
{"compound": "CC(=O)N[C@H]1CSCc2cccc(c2)CSC[C@@H](C(N)=O)NC(=O)[C@@H]2CCCN2C(=O)[C@H](Cc2ccc(O)cc2)NC(=O)[C@H](Cc2c[nH]cn2)NC(=O)[C@H](CC(=O)O)NC(=O)[C@H](Cc2c[nH]c3ccc(F)cc23)NC(=O)[C@H](Cc2c[nH]c3ccccc23)NC(=O)CNC(=O)[C@H](CCCCN)NC1=O (Ac-CKGW[Trp(5-F)]DHYPC-NH2; linker 1-10 via mXylylene)", "studySystem": "PCSK9/LDLR (Homo sapiens)", "valueQualifier": "=", "Ki [nM]": 103}
{"compound": "C[C@@H]1NC(=O)[C@H](Cc2ccc(O)cc2)NC(=O)[C@H](Cc2cnc[nH]2)NC(=O)[C@H](CC(=O)O)NC(=O)[C@H](Cc2c[nH]c3ccc(F)cc23)NC(=O)[C@H](Cc2c[nH]c3ccc(F)cc23)NC(=O)CNC(=O)[C@H](CCCCN)NC(=O)CCSCc2cccc(c2)CSC[C@@H](C(N)=O)NC1=O ([Mpa]KG[Trp(5-F)][Trp(5-F)]DHYAC-NH2; linker 1-10 via mXylylene)", "studySystem": "PCSK9/LDLR (Homo sapiens)", "valueQualifier": ">", "Ki [nM]": 48000}
{"compound": "CN1C(=O)CCSCc2cccc(c2)CSC[C@@H](C(N)=O)NC(=O)[C@@H]2CCCN2C(=O)[C@H](Cc2ccc(O)cc2)NC(=O)[C@H](Cc2cnc[nH]2)NC(=O)[C@H](CC(=O)O)NC(=O)[C@H](Cc2c[nH]c3ccc(F)cc23)NC(=O)[C@H](Cc2c[nH]c3ccc(F)cc23)NC(=O)CNC(=O)[C@@H]1CCCCN ([Mpa][NMeK]G[Trp(5-F)][Trp(5-F)]DHYPC-NH2; linker 1-10 via mXylylene)", "studySystem": "PCSK9/LDLR (Homo sapiens)", "valueQualifier": "=", "Ki [nM]": 342}
{"compound": "COc1ccc(C[C@@H]2NC(=O)[C@H](Cc3cnc[nH]3)NC(=O)[C@H](CC(=O)O)NC(=O)[C@H](Cc3c[nH]c4ccc(F)cc34)NC(=O)[C@H](Cc3c[nH]c4ccc(F)cc34)NC(=O)[C@@H](C)NC(=O)[C@H](CCCCO)NC(=O)CCSCc3cccc(c3)CSCCNC(=O)[C@]3(C)CCCN3C2=O)cc1", "studySystem": "PCSK9/LDLR (Homo sapiens)", "valueQualifier": "=", "Ki [nM]": 78.9}
{"compound": "C[C@@]12CCCN1C(=O)[C@H](Cc1ccc(O)cc1)NC(=O)[C@H](Cc1cnc[nH]1)NC(=O)[C@H](CC(=O)O)NC(=O)[C@H](Cc1c[nH]c3ccc(F)cc13)NC(=O)[C@H](Cc1c[nH]c3ccc(F)cc13)NC(=O)CNC(=O)[C@H](CCCCN)NC(=O)CCSCc1cccc(c1)CSC[C@@H](C(N)=O)NC2=O ([Mpa]KG[Trp(5-F)][Trp(5-F)]DHY[αMeP]C-NH2; linker 1-10 via mXylylene)", "studySystem": "PCSK9/LDLR (Homo sapiens)", "valueQualifier": "=", "Ki [nM]": 14}
{"compound": "NCCCC[C@@H]1NC(=O)CCSCc2cccc(c2)CSC[C@@H](C(N)=O)NC(=O)[C@@H]2CCCN2C(=O)[C@@H](Cc2ccc(O)cc2)NC(=O)[C@H](Cc2cnc[nH]2)NC(=O)[C@H](CC(=O)O)NC(=O)[C@H](Cc2c[nH]c3ccc(F)cc23)NC(=O)[C@H](Cc2c[nH]c3ccc(F)cc23)NC(=O)CNC1=O", "studySystem": "PCSK9/LDLR (Homo sapiens)", "valueQualifier": ">", "Ki [nM]": 48000}
{"compound": "NCCCC[C@@H]1NC(=O)CCSCc2cccc(c2)CSC[C@@H](C(N)=O)NC(=O)[C@@H]2CCN2C(=O)[C@H](Cc2ccc(O)cc2)NC(=O)[C@H](Cc2cnc[nH]2)NC(=O)[C@H](CC(=O)O)NC(=O)[C@H](Cc2c[nH]c3ccc(F)cc23)NC(=O)[C@H](Cc2c[nH]c3ccc(F)cc23)NC(=O)CNC1=O ([Mpa]KG[Trp(5-F)][Trp(5-F)]DHY[Aze]C-NH2; linker 1-10 via mXylylene)", "studySystem": "PCSK9/LDLR (Homo sapiens)", "valueQualifier": "=", "Ki [nM]": 67.5}
